target: Bcl-2-like protein 1 (Homo sapiens, UniProt Q07817)
Sequence (Q07817 whole entry): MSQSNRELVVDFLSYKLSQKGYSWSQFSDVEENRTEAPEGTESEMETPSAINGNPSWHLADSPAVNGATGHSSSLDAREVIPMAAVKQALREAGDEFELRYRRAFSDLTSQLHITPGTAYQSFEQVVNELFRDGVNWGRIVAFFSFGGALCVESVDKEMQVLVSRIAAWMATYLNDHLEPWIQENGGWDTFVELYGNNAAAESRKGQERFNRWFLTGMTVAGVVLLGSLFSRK
Classify: condition met when IC50 is strictly less than 60 nM; condition not met when IC50 is not.

Problem: IC50 strictly < 60 nM for this compound? `CCCCc1c(-c2ccc(C(=O)NS(=O)(=O)c3ccc4ccccc4c3)cc2C(=O)N2CCc3ccccc3C2)c(C(=O)OCC)nn1-c1ccc(Oc2ccccc2)cc1`
Result: condition met

Problem: IC50 strictly < 60 nM for this compound? `CCCCc1c(-c2ccc(C(=O)NS(=O)(=O)c3ccc4ccccc4c3)cc2C(=O)N2CCc3ccccc3C2)c(CO)nn1-c1ccc(-c2ccccc2)cc1`
Result: condition met

Problem: IC50 strictly < 60 nM for this compound? `CCCCc1c(-c2ccc(C(=O)NS(=O)(=O)c3ccc4ccccc4c3)cc2C(=O)N2Cc3ccccc3C[C@H]2CN)c(CO)nn1-c1ccccc1`
Result: condition met

Problem: IC50 strictly < 60 nM for this compound? `CCCCN(CCCC)c1nccc(-c2ccc(C(=O)NS(=O)(=O)c3ccc4c(c3)CCN4Cc3ccc(Cl)c(Cl)c3)cc2C(=O)N2CCc3ccccc3C2)n1`
Result: condition not met

Problem: IC50 strictly < 60 nM for this compound? `CCCCc1c(-c2ccc(C(=O)NS(=O)(=O)c3ccc4ccccc4c3)cc2C(=O)N2CCc3ccccc3C2)c(CO)nn1-c1ccc(Oc2cccc(Cl)c2)cc1`
Result: condition met

Problem: IC50 strictly < 60 nM for this compound? `CCCCN(CCCC)c1nccc(-c2ccc(C(=O)NS(=O)(=O)c3ccc4ccccc4c3)cc2C(=O)N2CCc3ccccc3C2)n1`
Result: condition not met

---

measuredParameter: IC50 (nM)
Report only the number, with the unit nM understood.

The recorded IC50 with Bcl-2-like protein 1 (Homo sapiens) for `CCCCN(CCCC)c1nccc(-c2ccc(C(=O)NS(=O)(=O)c3ccc4ccccc4c3)cc2C(=O)N2Cc3ccccc3C[C@H]2CN)n1` was 160

The recorded IC50 with Bcl-2-like protein 1 (Homo sapiens) for `CCCCN(CCCC)c1nccc(-c2ccc(C(=O)NS(=O)(=O)c3ccc4cccc(Cl)c4c3)cc2C(=O)N2Cc3ccccc3C[C@H]2CO)n1` was 130

The recorded IC50 with Bcl-2-like protein 1 (Homo sapiens) for `CCCCc1c(-c2ccc(C(=O)NS(=O)(=O)c3ccc4ccccc4c3)cc2C(=O)N2CCc3ccccc3C2)c(C(=O)O)nn1-c1ccccc1` was 30

The recorded IC50 with Bcl-2-like protein 1 (Homo sapiens) for `CCCCc1c(-c2ccc(C(=O)NS(=O)(=O)c3ccc4ccccc4c3)cc2C(=O)N2CCc3ccccc3C2)c(C(=O)OCC)nn1-c1ccccc1` was 42

The recorded IC50 with Bcl-2-like protein 1 (Homo sapiens) for `CCCN(CCC)c1ncc(Cl)c(-c2ccc(C(=O)NS(=O)(=O)c3ccc4cccc(Cl)c4c3)cc2C(=O)N2Cc3ccccc3C[C@H]2CN)n1` was 14

The recorded IC50 with Bcl-2-like protein 1 (Homo sapiens) for `CCCCN(CCCC)c1nccc(-c2ccc(C(=O)NS(=O)(=O)c3ccc4cccc(Cl)c4c3)cc2C(=O)N2CCc3ccccc3C2)n1` was 480

The recorded IC50 with Bcl-2-like protein 1 (Homo sapiens) for `CCCCCS(=O)(=O)NC(=O)c1ccc(-c2c(CO)nn(-c3ccc(Oc4cccc(Cl)c4)cc3)c2CCCC)c(C(=O)N2CCc3ccccc3C2)c1` was 120

The recorded IC50 with Bcl-2-like protein 1 (Homo sapiens) for `CCCCc1c(-c2ccc(C(=O)NS(=O)(=O)c3ccc4ccccc4c3)cc2C(=O)N2CCc3ccccc3C2)c(CO)nn1-c1ccc(CCCO)cc1` was 7
